MEASURED ON: human DGKα (Homo sapiens, UniProt P23743)
Construct: TVMV protease cleavage site (C); Hexa-His (C); made in house; host or cells: Sf9 insect cells (baculovirus, Bac-to-Bac)
Sequence (P23743 with tags, fused parts or gaps): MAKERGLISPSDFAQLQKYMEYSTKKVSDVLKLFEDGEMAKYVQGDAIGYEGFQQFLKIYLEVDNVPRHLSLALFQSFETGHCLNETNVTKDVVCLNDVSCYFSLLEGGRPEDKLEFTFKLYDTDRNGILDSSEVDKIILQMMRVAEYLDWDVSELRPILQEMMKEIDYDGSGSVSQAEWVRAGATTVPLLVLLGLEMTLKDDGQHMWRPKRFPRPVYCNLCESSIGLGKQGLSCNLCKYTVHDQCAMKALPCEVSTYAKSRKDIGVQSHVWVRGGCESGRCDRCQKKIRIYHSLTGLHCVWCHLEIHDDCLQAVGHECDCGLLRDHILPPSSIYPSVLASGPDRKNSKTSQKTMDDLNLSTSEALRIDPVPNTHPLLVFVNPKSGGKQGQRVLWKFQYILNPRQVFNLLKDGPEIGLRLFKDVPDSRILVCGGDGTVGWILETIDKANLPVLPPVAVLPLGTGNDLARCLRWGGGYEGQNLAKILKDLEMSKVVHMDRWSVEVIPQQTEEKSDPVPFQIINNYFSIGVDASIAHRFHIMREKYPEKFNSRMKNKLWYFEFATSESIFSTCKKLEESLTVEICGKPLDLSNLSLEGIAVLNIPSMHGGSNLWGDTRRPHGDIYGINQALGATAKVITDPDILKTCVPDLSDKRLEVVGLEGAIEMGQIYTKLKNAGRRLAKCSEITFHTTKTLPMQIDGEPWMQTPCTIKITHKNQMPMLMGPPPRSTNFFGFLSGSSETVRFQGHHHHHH
PROCEDURE TEXT: DGKα LIPGLO assay (extruded liposome substrate), in vitro DGK inhibition
Assay type: biochemical
CONDITION SET: DGKα liposome (LIPGLO) assay; read-out: DGKa LIPGLO IC50
Would you kindly list pIC50 for each of these compounds?
Give bare numbers, as −log10 of the molar value.

CC(c1ccc(OC(F)(F)F)cc1)N1CCN(c2c(C#N)c(=O)n(C)c3ccc(C#N)nc23)C[C@H]1C (single isomer, unassigned) [Example 958]: 6.31
C[C@@H]1CN(c2cc(=O)n(C)c3ccc(C#N)nc23)[C@@H](C)CN1C(c1ccc(F)cc1)c1nc(C(C)(C)C)co1 (single isomer, unassigned) [Example 778]: 6.82
C[C@@H]1CN(c2cc(=O)n(C)c3ccc(C#N)nc23)[C@@H](C)CN1C(c1ccc(F)cc1)c1nc(-c2ccc(F)cc2)no1 (single isomer, unassigned) [Example 742]: 6.82
Cc1ccc(C(c2ccc(F)cc2)N2CCN(c3c(C#N)c(=O)n(C)c4ccc(C#N)nc34)C[C@H]2C)nc1 (single isomer, unassigned) [Example 904]: 6.77

Turning to the following compound.
pIC50 on human DGKα (Homo sapiens, UniProt P23743) for Cc1ccc(C)c(C(C)N2CCN(c3c(C#N)c(=O)n(C)c4ccc(C#N)nc34)C[C@H]2C)c1 (single isomer, unassigned) [Example 976] is 4.77

----------
Kindly supply the reported IC50 values for the records listed here.
MEASURED ON: human DGKζ (Homo sapiens, UniProt Q13574)
Construct: TVMV protease cleavage site (C); Hexa-His (C); made in house; host or cells: Sf9 insect cells (baculovirus, Bac-to-Bac)
Sequence (Q13574 with tags, fused parts or gaps isoform Q13574-4): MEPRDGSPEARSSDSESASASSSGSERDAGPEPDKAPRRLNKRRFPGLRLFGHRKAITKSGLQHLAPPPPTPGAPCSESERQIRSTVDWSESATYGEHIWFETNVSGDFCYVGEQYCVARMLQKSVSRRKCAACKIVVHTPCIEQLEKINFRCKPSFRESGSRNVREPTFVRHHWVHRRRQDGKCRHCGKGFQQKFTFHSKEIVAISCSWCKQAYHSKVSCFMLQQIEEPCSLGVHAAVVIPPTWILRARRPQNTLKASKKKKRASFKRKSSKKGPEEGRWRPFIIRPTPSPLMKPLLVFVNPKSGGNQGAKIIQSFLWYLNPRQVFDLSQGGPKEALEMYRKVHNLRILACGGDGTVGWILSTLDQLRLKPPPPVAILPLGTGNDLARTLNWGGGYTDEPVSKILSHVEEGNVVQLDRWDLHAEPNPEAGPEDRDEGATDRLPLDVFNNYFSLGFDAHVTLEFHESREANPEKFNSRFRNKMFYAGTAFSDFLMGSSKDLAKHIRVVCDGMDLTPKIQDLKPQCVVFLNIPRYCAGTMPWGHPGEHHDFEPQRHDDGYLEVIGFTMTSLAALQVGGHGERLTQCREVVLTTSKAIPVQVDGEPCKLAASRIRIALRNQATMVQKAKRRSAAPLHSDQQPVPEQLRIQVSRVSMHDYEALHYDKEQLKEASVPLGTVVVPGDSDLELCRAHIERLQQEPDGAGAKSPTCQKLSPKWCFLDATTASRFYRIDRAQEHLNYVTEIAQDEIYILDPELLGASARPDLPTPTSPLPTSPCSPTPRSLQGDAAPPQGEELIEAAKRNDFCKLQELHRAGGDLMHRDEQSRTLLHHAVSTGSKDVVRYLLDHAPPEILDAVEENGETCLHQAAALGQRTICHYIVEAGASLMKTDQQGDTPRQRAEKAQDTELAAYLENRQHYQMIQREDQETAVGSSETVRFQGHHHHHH
PROCEDURE TEXT: DGKζ LIPGLO assay (extruded liposome substrate), in vitro DGK inhibition
Format: biochemical
CONDITION SET: DGKζ liposome (LIPGLO) assay; read-out: DGKz LIPGLO IC50
Give bare numbers, in nM.

Some entries whose results are on file:
C[C@@H]1CN(c2c(C#N)c(=O)n(C)c3ccc(C#N)nc23)CCN1C(c1ccc(F)cc1)c1ccc(C(F)(F)F)cn1 (single isomer, unassigned) [Example 896]: 600
C[C@@H]1CN(c2cc(=O)n(C)c3ccc(C#N)nc23)[C@@H](C)CN1C(c1ccc(F)cc1)c1csc(C2CC2)n1 (single isomer, unassigned) [Example 724]: 98
COC(=O)c1ccc(C(C)N2C[C@H](C)N(c3c(C#N)c(=O)n(C)c4ccc(C#N)nc34)C[C@H]2C)cc1 (single isomer, unassigned) [Example 793]: 11000
C[C@@H]1CN(c2cc(=O)n(C)c3ccc(C#N)nc23)[C@@H](C)CN1C(c1ccc(F)cc1)c1nc(C2CC2)nn1C (single isomer, unassigned) [Example 769]: 200
C[C@@H]1CN(c2cc(=O)n(C)c3ccc(C#N)nc23)[C@@H](C)CN1C(c1ccc(F)cc1)c1cscn1 (stereo partly drawn) [Example 722]: 560

For every item in the list below, what is its measured IC50?
1. C[C@@H]1CN(c2c(C#N)c(=O)n(C)c3ccc(C#N)nc23)CCN1C(c1ccc(Cl)cc1)c1ncccc1F (stereo partly drawn) [Example 909]
2. CC(c1c(F)cccc1F)N1C[C@H](C)N(c2c(C#N)c(=O)n(C)c3ccc(C#N)nc23)C[C@H]1C (single isomer, unassigned) [Example 781]
3. C[C@@H]1CN(c2c(C#N)c(=O)n(C)c3ccc(C#N)nc23)[C@@H](C)CN1C(c1ccc(F)cc1)c1ccc(F)cn1 (stereo partly drawn) [Example 828]
4. Cc1cc(C(C)N2C[C@H](C)N(c3c(C#N)c(=O)n(C)c4ccc(C#N)nc34)C[C@H]2C)no1 (single isomer, unassigned) [Example 803]
5. C[C@@H]1CN(c2c(C#N)c(=O)n(C)c3ccc(C#N)nc23)CCN1C(c1ccc(F)cc1)c1ccc(C#N)cn1 (single isomer, unassigned) [Example 908]
6. Cc1ccc(C(c2ccc(F)cc2)N2CCN(c3c(C#N)c(=O)n(C)c4ccc(C#N)nc34)C[C@H]2C)nc1 (single isomer, unassigned) [Example 915]
7. C[C@@H]1CN(c2cc(=O)n(C)c3ccc(C#N)nc23)[C@@H](C)CN1C(c1ccc(F)cc1)c1nc(C(F)F)no1 (stereo partly drawn) [Example 744]
8. C[C@@H]1CN(c2c(C#N)c(=O)n(C)c3ccc(C#N)nc23)CCN1C(c1ccc(F)cc1)c1cccc2c1OC(F)(F)O2 (single isomer, unassigned) [Example 939]

(A)
1. 16000
2. 120
3. 16000
4. 7000
5. 3900
6. 1300
7. 620
8. 4000

Can you give me IC50 for all of these, one by one?
1. C[C@@H]1CN(c2c(C#N)c(=O)n(C)c3ccc(C#N)nc23)CCN1C(c1ccc(F)cc1)c1ccc(C#N)cn1 (single isomer, unassigned) [Example 924]
2. COC(=O)c1ccc(C(C)N2CCN(c3c(C#N)c(=O)n(C)c4ccc(C#N)nc34)C[C@H]2C)cc1 (stereo partly drawn) [Example 980]
3. C[C@@H]1CN(c2c(C#N)c(=O)n(C)c3ccc(C#N)nc23)CCN1C(c1cccc(F)c1)c1ccc(F)cn1 (single isomer, unassigned) [Example 925]
4. C[C@@H]1CN(c2c(C#N)c(=O)n(C)c3ccc(C#N)nc23)CCN1C(c1cccc(F)c1)c1ccc(C(F)(F)F)cn1 (single isomer, unassigned) [Example 948]
5. C[C@@H]1CN(c2c(C#N)c(=O)n(C)c3ccc(C#N)nc23)CCN1Cc1c(F)cc(F)cc1F
6. C[C@@H]1CN(c2c(C#N)c(=O)n(C)c3ccc(C#N)nc23)CCN1C(c1cccc(F)c1)c1ccc(C(F)(F)F)cn1 (single isomer, unassigned) [Example 949]
7. Cc1ccc(F)cc1CN1CCN(c2c(C#N)c(=O)n(C)c3ccc(C#N)nc23)C[C@H]1C
8. CC(c1ccc(F)cc1F)N1CCN(c2c(C#N)c(=O)n(C)c3ccc(C#N)nc23)C[C@H]1C (single isomer, unassigned) [Example 969]

(A)
1. 10000
2. 13000
3. 2800
4. 310
5. 2600
6. 1100
7. 4600
8. 1200

Hi! Can you tell me IC50 for each of these molecules?
1. C[C@@H]1CN(c2cc(=O)n(C)c3ccc(C#N)nc23)[C@@H](C)CN1C(c1ccc(F)cc1)c1nc(C(C)(C)C)co1 (single isomer, unassigned) [Example 778]
2. C[C@@H]1CN(c2c(C#N)c(=O)n(C)c3ccc(C#N)nc23)CCN1C(c1ccc(F)cc1)c1cccc(F)c1 (stereo partly drawn) [Example 881]

(A)
340
3000

----------
MEASURED ON: human DGKζ (Homo sapiens, UniProt Q13574)
Construct: TVMV protease cleavage site (C); Hexa-His (C); made in house; host or cells: Sf9 insect cells (baculovirus, Bac-to-Bac)
PROCEDURE TEXT: DGKζ LIPGLO assay (extruded liposome substrate), in vitro DGK inhibition
Assay type: biochemical
CONDITION SET: liposome (LIPGLO) assay; read-out: DGKz LIPGLO IC50
MEASURED PARAMETER: IC50 (nM)
Answers are plain numbers, in nM.

// known answers, use as guide
COc1cc(F)c(C(C)N2C[C@H](C)N(c3cc(=O)n(C)c4ccc(C#N)nc34)C[C@H]2C)c(F)c1 (stereo partly drawn): 19
CC[C@H]1CN(C(c2ccc(F)cc2)c2nc(C3CC3)no2)[C@H](CC)CN1c1cc(=O)n(C)c2ccc(C#N)nc12 (stereo partly drawn) [Example 1064]: 39
Cc1ccc(C(c2ccc(F)cn2)N2C[C@H](C)N(c3cc(=O)n(C)c4ccc(C#N)nc34)C[C@H]2C)cc1 (single isomer, unassigned): 760
C[C@@H]1CN(c2cc(=O)n(C)c3ccc(C#N)nc23)[C@@H](C)CN1C(c1ccc(F)cc1)c1ccc(F)cn1 (single isomer, unassigned): 680
CC[C@@H]1CN(c2cc(=O)n(C)c3ccc(C#N)nc23)[C@@H](C)CN1C(CC1CCCCC1)c1ccc(OC(F)(F)F)cc1 (stereo partly drawn) [Example 1195]: 280

Shifting focus to the compound that follows.
Briefly, IC50 measured for C[C@@H]1CN(c2cc(=O)n(C)c3ccc(C#N)nc23)[C@@H](C)CN1C(c1ccc(OC(F)(F)F)cc1)c1ccc(F)cn1 (single isomer, unassigned) [Example 468] : 1600

----------
MEASURED ON: human DGKζ (Homo sapiens, UniProt Q13574)
Construct: TVMV protease cleavage site (C); Hexa-His (C); made in house; host or cells: Sf9 insect cells (baculovirus, Bac-to-Bac)
PROCEDURE TEXT: DGKζ LIPGLO assay (extruded liposome substrate), in vitro DGK inhibition
Format: biochemical
CONDITION SET: DGKζ liposome (LIPGLO) assay; read-out: DGKz LIPGLO IC50
Record form. Attribute: pIC50. Fill in for each entry.
Give bare numbers, as −log10 of the molar value.

C[C@@H]1CN(c2cc(=O)n(C)c3ccc(C#N)nc23)[C@@H](C)CN1C(c1ccc(F)cc1)c1nc(-c2ccc(F)cc2)no1 (single isomer, unassigned) [Example 742]: 6.10
Cc1ccc(C(c2cccc(F)c2)N2CCN(c3c(C#N)c(=O)n(C)c4ccc(C#N)nc34)C[C@H]2C)nc1 (single isomer, unassigned) [Example 923]: 5.72
C[C@@H]1CN(c2c(C#N)c(=O)n(C)c3ccc(C#N)nc23)CCN1Cc1ccc(Cl)c(F)c1 [Example 1015]: 5.09
CC(c1cccc(C(F)(F)F)c1)N1CCN(c2c(C#N)c(=O)n(C)c3ccc(C#N)nc23)C[C@H]1C (single isomer, unassigned) [Example 971]: 5.31
CC(c1ccc(Br)cc1)N1CCN(c2c(C#N)c(=O)n(C)c3ccc(C#N)nc23)C[C@H]1C (single isomer, unassigned) [Example 974]: 5.12
C[C@@H]1CN(c2c(C#N)c(=O)n(C)c3ccc(C#N)nc23)CCN1C(c1cccc(Cl)c1)c1ccc(F)cn1 (stereo partly drawn) [Example 927]: 5.80

Below is a list of compounds. For each, state its recorded pIC50.
1. C[C@@H]1CN(c2c(C#N)c(=O)n(C)c3ccc(C#N)nc23)CCN1C(c1ccc(F)cc1)c1ncccc1F (single isomer, unassigned) [Example 893]
2. C[C@@H]1CN(c2c(C#N)c(=O)n(C)c3ccc(C#N)nc23)[C@@H](C)CN1C(c1ccc(F)cc1)c1nc(C2CC2)no1 (single isomer, unassigned) [Example 860]
3. C[C@@H]1CN(c2c(C#N)c(=O)n(C)c3ccc(C#N)nc23)[C@@H](C)CN1C(c1ccc(F)cc1)c1ccns1 (single isomer, unassigned) [Example 854]
4. Cc1ccc(C(c2ccc(F)cc2Cl)N2CCN(c3c(C#N)c(=O)n(C)c4ccc(C#N)nc34)C[C@H]2C)nc1 (stereo partly drawn) [Example 938]

(A)
1. 6.14
2. 5.89
3. 5.72
4. 5.55

Briefly, pIC50 measured for C[C@@H]1CN(c2cc(=O)n(C)c3ccc(C#N)nc23)[C@@H](C)CN1C(c1ccc(OC(F)(F)F)cc1)c1nc(C2CC2)no1 (single isomer, unassigned) [Example 758] : 7.12

Attribution: patent US10669272B2
